Cited source for all entries: patent US20250066503A1

- MEASURED ON: T1, soluble human CD3 epsilon chain (human, UniProt P07766 23-126)
- T1 construct: also called CD3ε
- ASSAY DETAILS: SPR
Listed next: entries and their corresponding pKd.
# pKd is unitless: minus log10 of the molar concentration; print number only

Example binders with recorded pKd:
TR01H034-E22Hh/none-Hi-Kn010G3/L0000-k0 (antibody, V domains shown, one-arm) VH: QVQLVESGGGLVQPGRSLRLSCAASGFTFSNAWMHWVRQAPGKGLEWVAQIKGKSQNYATYYAESVKGRFTISRADSKNSIYLQMNSLKTEDTAVYYCRYVHYSASYGVDAWGQGTTVTVSS VL: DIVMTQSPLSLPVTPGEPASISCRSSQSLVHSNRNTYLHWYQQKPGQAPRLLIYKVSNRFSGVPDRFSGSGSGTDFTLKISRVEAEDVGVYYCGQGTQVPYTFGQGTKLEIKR :: 7.04
TR01H091-E2702GsKsc/none-Hi-E2704sE/L0011-k0 (antibody, V domains shown, one-arm) VH: QVQLVESGGGLVQPGRSLKLSCAASGFTFSNAWMHWVRQAPGKGLEWVAQIKDKSQNYATYYAESVKGRFTISRDDSKNSLYLQMNSLKTEDTAVYYCRYVHYAAGYGVDAWGQGTTVTVSS VL: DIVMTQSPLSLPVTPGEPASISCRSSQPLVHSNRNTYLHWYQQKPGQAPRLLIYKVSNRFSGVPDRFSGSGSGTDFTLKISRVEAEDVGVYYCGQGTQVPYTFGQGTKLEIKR :: 7.86
TR01H040-E22Hh/none-Hi-Kn010G3/L0238-k0 (antibody, V domains shown, one-arm) VH: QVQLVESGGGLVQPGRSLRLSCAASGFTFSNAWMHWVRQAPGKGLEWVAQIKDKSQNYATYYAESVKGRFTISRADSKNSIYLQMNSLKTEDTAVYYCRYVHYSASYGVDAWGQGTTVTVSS VL: DIVMTQSPLSLPVTPGEPASISCRSSEPPVHSNRNTYLHWYQQKPGQAPRLLIYKVSNRFSGVPDRFSGSGSGTDFTLKISRVEAEDVGVYYCYQGTQVPYTFGQGTKLEIK :: 8.54
TR01H040-E22Hh/none-Hi-Kn010G3/L0203-k0 (antibody, V domains shown, one-arm) VH: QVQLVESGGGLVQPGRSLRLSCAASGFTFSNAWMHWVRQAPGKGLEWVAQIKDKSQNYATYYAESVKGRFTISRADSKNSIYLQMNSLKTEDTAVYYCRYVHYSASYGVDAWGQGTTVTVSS VL: DIVMTQSPLSLPVTPGEPASISCRSSQSPVHSNRNTYIHWYQQKPGQAPRLLIYKVSNRFSGVPDRFSGSGSGTDFTLKISRVEAEDVGVYYCGQGTQVPYTFGQGTKLEIKR :: 7.49

Now for another entry.
pKd in this record for TR01H040-E22Hh/none-Hi-Kn010G3/L0214-k0 (antibody, V domains shown, one-arm) VH: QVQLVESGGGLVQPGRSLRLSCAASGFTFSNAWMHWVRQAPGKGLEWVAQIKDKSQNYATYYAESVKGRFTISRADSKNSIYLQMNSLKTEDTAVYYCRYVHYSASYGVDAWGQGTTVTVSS VL: DIVMTQSPLSLPVTPGEPASISCRSSQPPVHSNRNTYLHWYQQKPGQAPRLLIYKVSNRFRGVPDRFSGSGSGTDFTLKISRVEAEDVGVYYCGQGTQVPYTFGQGTKLEIK : 7.69
